Biological target: T1, wild-type non-luminescent polypeptide (WT fragment of residues 1-156 of NanoLuc)
T1 chain: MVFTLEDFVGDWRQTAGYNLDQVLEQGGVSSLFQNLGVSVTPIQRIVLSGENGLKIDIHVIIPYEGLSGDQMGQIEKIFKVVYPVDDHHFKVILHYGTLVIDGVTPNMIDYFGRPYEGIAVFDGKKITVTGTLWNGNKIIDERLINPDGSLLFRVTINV
Test: luminescence complementation; NanoGlo
ASSAY_READOUT: Kd (µM)

> print(dat)
                    binder  value.reported
1  NVTGYRLFKKISN [NLpep79]            2.89
2  GVTGWRLCERILA [NLpepWT]            20.6
